System: recombinant NL-Rluc virus (NL4-3 with Renilla Luciferase gene) in MT-2 cells
Assay: Inhibition of HIV replication (NL-Rluc luciferase reporter virus, MT-2 cells)
Type: cell-based, human immunodeficiency virus (HIV)
Details: NL43, 120 h, read-out: Activity
pEC50: −log10 of the molar value. Structures can show the parent of a compound that is named as a salt.
EXPERIMENTAL ENDPOINT: pEC50

{"MOLECULE": "Cc1nc2cc(-c3cccc(-c4ccncc4)c3)nn2c(-c2cc(F)c3c(c2C)CCCO3)c1[C@@H](OC(C)(C)C)C(=O)O [Example 122, TFA salt]", "ASSAY SYSTEM": "recombinant NL-Rluc virus (NL4-3 with Renilla Luciferase gene) in MT-2 cells", "READING": "< 6.00"}
{"MOLECULE": "Cc1nc2cc(-c3ccccc3)nn2c(-c2cc3ccccc3n2C)c1C(OC(C)(C)C)C(=O)O (stereo not drawn)", "ASSAY SYSTEM": "recombinant NL-Rluc virus (NL4-3 with Renilla Luciferase gene) in MT-2 cells", "READING": "< 6.00"}
{"MOLECULE": "Cc1nc2cc(-c3ccccc3)nn2c(-c2cc(F)c3c(c2C)CCCO3)c1[C@@H](OC(C)(C)C)C(=O)O", "ASSAY SYSTEM": "recombinant NL-Rluc virus (NL4-3 with Renilla Luciferase gene) in MT-2 cells", "READING": "< 6.00"}
{"MOLECULE": "COc1ccc(COc2cccc(-c3cc4nc(C)c(C(OC(C)(C)C)C(=O)O)c(-c5cc(F)c6c(c5C)CCCO6)n4n3)c2)cc1 (stereo not drawn) [Example 103, TFA salt]", "ASSAY SYSTEM": "recombinant NL-Rluc virus (NL4-3 with Renilla Luciferase gene) in MT-2 cells", "READING": "> 7.00"}
{"MOLECULE": "Cc1nc2cc(-c3cccc(OCc4cccc(Cl)c4)c3)nn2c(-c2cc(F)c3c(c2C)CCCO3)c1C(OC(C)(C)C)C(=O)O (stereo not drawn) [Example 104, TFA salt]", "ASSAY SYSTEM": "recombinant NL-Rluc virus (NL4-3 with Renilla Luciferase gene) in MT-2 cells", "READING": "> 7.00"}
{"MOLECULE": "COc1ccc(-c2c(C(OC(C)(C)C)C(=O)O)c(C)nc3cc(-c4ccccc4)nn23)cc1F (stereo not drawn)", "ASSAY SYSTEM": "recombinant NL-Rluc virus (NL4-3 with Renilla Luciferase gene) in MT-2 cells", "READING": "< 6.00"}
{"MOLECULE": "Cc1ccc(-c2c(C(OC(C)(C)C)C(=O)O)c(C)nc3cc(-c4ccccc4)nn23)c(C)c1 (stereo not drawn)", "ASSAY SYSTEM": "recombinant NL-Rluc virus (NL4-3 with Renilla Luciferase gene) in MT-2 cells", "READING": "< 6.00"}
{"MOLECULE": "Cc1nc2cc(-c3ccc4c(c3)CCCC4)nn2c(-c2cc(F)c3c(c2C)CCCO3)c1[C@H](OC(C)(C)C)C(=O)O", "ASSAY SYSTEM": "recombinant NL-Rluc virus (NL4-3 with Renilla Luciferase gene) in MT-2 cells", "READING": "> 7.00"}
{"MOLECULE": "Cc1nc2cc(-c3ccccc3)nn2c(-c2ccc3c4c(ccnc24)CCO3)c1C(OC(C)(C)C)C(=O)O (stereo not drawn)", "ASSAY SYSTEM": "recombinant NL-Rluc virus (NL4-3 with Renilla Luciferase gene) in MT-2 cells", "READING": "< 6.00"}
{"MOLECULE": "Cc1nc2cc(-c3ccccc3)nn2c(-c2ccccc2Cl)c1C(OC(C)(C)C)C(=O)O (stereo not drawn)", "ASSAY SYSTEM": "recombinant NL-Rluc virus (NL4-3 with Renilla Luciferase gene) in MT-2 cells", "READING": "< 6.00"}
{"MOLECULE": "COc1cccc(-c2cc3nc(C)c(C(OC(C)(C)C)C(=O)O)c(-c4cc(F)c5c(c4C)CCCO5)n3n2)c1 (stereo not drawn)", "ASSAY SYSTEM": "recombinant NL-Rluc virus (NL4-3 with Renilla Luciferase gene) in MT-2 cells", "READING": "6.00 to 7.00"}
{"MOLECULE": "COc1ccc(-c2c(C(OC(C)(C)C)C(=O)O)c(C)nc3cc(-c4ccccc4)nn23)cc1 (stereo not drawn)", "ASSAY SYSTEM": "recombinant NL-Rluc virus (NL4-3 with Renilla Luciferase gene) in MT-2 cells", "READING": "< 6.00"}
{"MOLECULE": "Cc1cc(-c2c(C(OC(C)(C)C)C(=O)O)c(C)nc3cc(-c4ccccc4)nn23)ccc1F (stereo not drawn)", "ASSAY SYSTEM": "recombinant NL-Rluc virus (NL4-3 with Renilla Luciferase gene) in MT-2 cells", "READING": "< 6.00"}
{"MOLECULE": "Cc1nc2cc(-c3ccccc3)nn2c(-c2ccc(F)c(Cl)c2)c1C(OC(C)(C)C)C(=O)O (stereo not drawn)", "ASSAY SYSTEM": "recombinant NL-Rluc virus (NL4-3 with Renilla Luciferase gene) in MT-2 cells", "READING": "< 6.00"}
{"MOLECULE": "CSc1ccc(-c2c(C(OC(C)(C)C)C(=O)O)c(C)nc3cc(-c4ccccc4)nn23)cc1 (stereo not drawn)", "ASSAY SYSTEM": "recombinant NL-Rluc virus (NL4-3 with Renilla Luciferase gene) in MT-2 cells", "READING": "< 6.00"}
{"MOLECULE": "Cc1nc2cc(-c3ccccc3)nn2c(-c2ccc3nccnc3c2)c1C(OC(C)(C)C)C(=O)O (stereo not drawn)", "ASSAY SYSTEM": "recombinant NL-Rluc virus (NL4-3 with Renilla Luciferase gene) in MT-2 cells", "READING": "< 6.00"}
{"MOLECULE": "Cc1nc2c(C)c(-c3cccc(-c4cccc(F)c4)c3)nn2c(-c2cc(F)c3c(c2C)CCCO3)c1[C@H](OC(C)(C)C)C(=O)O", "ASSAY SYSTEM": "recombinant NL-Rluc virus (NL4-3 with Renilla Luciferase gene) in MT-2 cells", "READING": "> 7.00"}
{"MOLECULE": "Cc1nc2cc(-c3ccccc3)nn2c(-c2csc3ccccc23)c1C(OC(C)(C)C)C(=O)O (stereo not drawn)", "ASSAY SYSTEM": "recombinant NL-Rluc virus (NL4-3 with Renilla Luciferase gene) in MT-2 cells", "READING": "< 6.00"}
{"MOLECULE": "Cc1nc2cc(-c3ccccc3)nn2c(-c2ccc3c(c2)OCO3)c1C(OC(C)(C)C)C(=O)O (stereo not drawn)", "ASSAY SYSTEM": "recombinant NL-Rluc virus (NL4-3 with Renilla Luciferase gene) in MT-2 cells", "READING": "< 6.00"}
{"MOLECULE": "Cc1nc2cc(-c3ccccc3)nn2c(-c2ccc3c(c2)OCCO3)c1C(OC(C)(C)C)C(=O)O (stereo not drawn)", "ASSAY SYSTEM": "recombinant NL-Rluc virus (NL4-3 with Renilla Luciferase gene) in MT-2 cells", "READING": "< 6.00"}
{"MOLECULE": "COc1ccncc1-c1cccc(-c2nn3c(-c4cc(F)c5c(c4C)CCCO5)c([C@H](OC(C)(C)C)C(=O)O)c(C)nc3c2C)c1", "ASSAY SYSTEM": "recombinant NL-Rluc virus (NL4-3 with Renilla Luciferase gene) in MT-2 cells", "READING": "> 7.00"}
{"MOLECULE": "Cc1ccc(-c2c(C(OC(C)(C)C)C(=O)O)c(C)nc3ccnn23)cc1 (stereo not drawn) [Example 42, TFA salt]", "ASSAY SYSTEM": "recombinant NL-Rluc virus (NL4-3 with Renilla Luciferase gene) in MT-2 cells", "READING": "< 6.00"}
{"MOLECULE": "Cc1nc2cc(-c3ccccc3)nn2c(-c2ccccc2)c1C(OC(C)(C)C)C(=O)O (stereo not drawn)", "ASSAY SYSTEM": "recombinant NL-Rluc virus (NL4-3 with Renilla Luciferase gene) in MT-2 cells", "READING": "< 6.00"}
{"MOLECULE": "Cc1nc2c(Cl)c(C)nn2c(-c2cc(F)c3c(c2C)CCCO3)c1C(OC(C)(C)C)C(=O)O (stereo not drawn)", "ASSAY SYSTEM": "recombinant NL-Rluc virus (NL4-3 with Renilla Luciferase gene) in MT-2 cells", "READING": "6.00 to 7.00"}
